Where do the numbers come from? From ChEMBL document CHEMBL4689842.

Each entry below carries its recorded Population Pyknosed Nuclei (%).
tested on: Fibroblast; experiment: Multiplex assay against human fibroblast; type: toxicity, cell-based; conditions: 48 h, 1 µM, compound concentration 1 uM, replicate 2
parameter.measured: Population Pyknosed Nuclei (%)

INSERT INTO results (compound, experimental_system, assay_value) VALUES
  ('Cl.NC[C@@H]1O[C@H](C23CC4CC(CC(C4)C2)C3)Cc2c1ccc(O)c2O', 'Fibroblast', 0),
  ('CCCCCNC(=N)N/N=C/c1c[nH]c2ccc(OC)cc12.O=C(O)/C=C\C(=O)O [TEGASEROD MALEATE]', 'Fibroblast', 3),
  ('C=CC(=O)Nc1cc(-n2c(=O)ccc3cnc4ccc(-c5ccc(NS(C)(=O)=O)cc5)cc4c32)ccc1C', 'Fibroblast', 6),
  ('N#CCNC(=O)c1ccc(-c2ccnc(Nc3ccc(N4CCOCC4)cc3)n2)cc1 [MOMELOTINIB]', 'Fibroblast', 5);
